TARGET_OR_SYSTEM: PTPN6 (Homo sapiens)
Sequence (P29350 whole entry): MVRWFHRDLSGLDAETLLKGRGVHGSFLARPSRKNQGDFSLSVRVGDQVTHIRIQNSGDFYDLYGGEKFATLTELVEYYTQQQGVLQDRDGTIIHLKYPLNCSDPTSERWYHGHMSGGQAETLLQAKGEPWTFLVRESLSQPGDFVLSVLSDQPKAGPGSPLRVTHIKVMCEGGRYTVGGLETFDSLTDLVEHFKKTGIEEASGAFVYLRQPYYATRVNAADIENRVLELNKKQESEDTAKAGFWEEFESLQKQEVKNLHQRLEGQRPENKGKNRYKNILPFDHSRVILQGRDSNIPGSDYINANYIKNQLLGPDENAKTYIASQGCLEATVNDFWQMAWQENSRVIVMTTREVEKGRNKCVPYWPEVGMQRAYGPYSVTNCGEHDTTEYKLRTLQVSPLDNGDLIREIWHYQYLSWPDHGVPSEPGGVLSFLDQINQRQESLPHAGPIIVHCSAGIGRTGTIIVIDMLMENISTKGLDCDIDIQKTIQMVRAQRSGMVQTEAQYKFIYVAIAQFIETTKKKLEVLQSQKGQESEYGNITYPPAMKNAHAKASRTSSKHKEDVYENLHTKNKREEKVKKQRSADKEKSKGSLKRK
ASSAY_PROTOCOL: DiFMUP fluorescence phosphatase assay with recombinant enzyme purified from E. coli
EXPERIMENTAL_ENDPOINT: pIC50
As a rule, pIC50 stands for the negative log10 of the concentration, concentration in M.

### Prompt Form field: reported pIC50 of O=c1c(O)c(-c2ccc(O)c(O)c2)oc2cc(O[C@@H]3O[C@H](CO)[C@@H](O)[C@H](O)[C@H]3O)c(O)c(O)c12
### Response 6.00
